These data points were gathered from PubChem BioAssay (Tox21).

# system.name: Gonadotropin-releasing hormone receptor (Homo sapiens) (UniProt P30968)
# Sequence (P30968 whole entry, looked up): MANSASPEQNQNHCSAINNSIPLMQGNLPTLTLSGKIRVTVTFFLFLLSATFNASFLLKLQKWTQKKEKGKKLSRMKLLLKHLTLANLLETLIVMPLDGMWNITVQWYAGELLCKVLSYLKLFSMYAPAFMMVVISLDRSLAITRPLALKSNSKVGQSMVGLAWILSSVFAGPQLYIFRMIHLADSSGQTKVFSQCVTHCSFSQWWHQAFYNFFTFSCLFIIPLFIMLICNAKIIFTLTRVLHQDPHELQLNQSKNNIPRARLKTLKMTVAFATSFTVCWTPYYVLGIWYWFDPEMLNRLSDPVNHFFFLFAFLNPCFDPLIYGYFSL
# protocol.details: Human gonadotropin-releasing hormone receptor (GnRHR) small molecule agonists, calcium flux assay in GnRHR-HEK293 cells (AID 1920063); note: nearly all actives have a fitted effect of over 35% in size
# condition.context: calcium flux fluorescence, agonist mode; series mostly up to 57.6 µM
Activity calls are given as the source filed them. Calls come from the whole dose curve.
Return exactly one item of TRUE for active, FALSE for inactive

Look up the recorded call for CC(Cc1ccccc1)NCCCCl (stereo unspecified) in this test.
FALSE

Also, Cc1ccc(-c2c(Cl)nc(C#N)n2S(=O)(=O)N(C)C)cc1 please.
FALSE

Would you kindly repeat that for COP(=O)(OC)Oc1ccc([N+](=O)[O-])cc1 ?
FALSE

// repeat for O=C(NC(=O)c1c(F)cccc1F)Nc1ccc(OC(F)(F)C(F)OC(F)(F)F)c(Cl)c1 (stereo unspecified) and report
FALSE

Then ClC1=C(Cl)[C@]2(Cl)[C@H]3[C@H]([C@H]4C=C[C@H]3C4)[C@@]1(Cl)C2(Cl)Cl ?
FALSE

And the next one, C[N+](C)=CCl ?
FALSE

Same question, CC(=O)NC1CCSC1=O (stereo unspecified) this time
FALSE

Another: CCOP(=S)(OCC)SCS(=O)(=O)CC
FALSE

Also check COc1ccc(OC)c(C=O)c1
FALSE

Subsequent entry: C=CCOC(C)=O
FALSE

Query COP(=S)(OC)Oc1cc(Cl)c(I)cc1Cl next
FALSE

Another compound: c1cc[c]([Hg][c]2ccccc2)cc1
FALSE

Can you handle O=CCCl next?
FALSE

Also need O=c1[nH]c2ccccc2n1C1CCNCC1 , thanks.
FALSE

Same for CC(C)N(CCC(C(N)=O)(c1ccccc1)c1ccccn1)C(C)C (stereo unspecified)
FALSE

Same question for C#CC(C)(C)O please.
FALSE

Also, CC(N)=S please.
FALSE

Now consider CCCN(CCC)c1c([N+](=O)[O-])cc(C(F)(F)F)cc1[N+](=O)[O-] and answer again.
FALSE

Also, CC1(C)C(/C=C(\Cl)C(F)(F)F)C1C(=O)OC(C#N)c1cccc(Oc2ccccc2)c1 (stereo unspecified) please.
FALSE

What would you report for Cc1cc(OC(=O)N(C)C)nn1C(=O)N(C)C ?
FALSE

Further, for CC(Oc1cc(Cl)c(Cl)cc1Cl)C(=O)O (stereo unspecified) ?
FALSE

What about c1ccc2c(c1)Sc1ccccc1N2CC1CN2CCC1CC2 (stereo unspecified) ?
FALSE

Another compound: COC1=CC(=O)O[C@@H](/C=C/c2ccc3c(c2)OCO3)C1
FALSE

Please give the result for Fc1ccc(C2(Cn3cncn3)OC2c2ccccc2Cl)cc1 (stereo unspecified) too.
FALSE

Please give the result for CCCC[N+](CCCC)(CCCC)CCCC too.
FALSE

Again, but for CCCCCCCCCCCCCCC(Br)C(=O)O (stereo unspecified)
FALSE

How about this compound: CC1(C)CON(Cc2ccccc2Cl)C1=O
FALSE

Do the same for CC1Sc2c(C(=O)O)c(=O)c3cc(F)c(N4CCNCC4)cc3n21 (stereo unspecified) please
FALSE

Request: C#CCC1=C(C)C(OC(=O)C2C(C=C(C)C)C2(C)C)CC1=O (stereo unspecified)
FALSE

Next compound: CCOP(=S)(OCC)Oc1cc(C)nc(N(CC)CC)n1
FALSE

Queued: Nc1cc(Cl)ccc1Cl
FALSE

Lookup ClCCCCl
FALSE

How about this compound: CCOC(=O)CCN(SN(C)C(=O)Oc1cccc2c1OC(C)(C)C2)C(C)C
FALSE

# repeat for CC(C)[C@]12CC(=O)[C@H](C)[C@H]1C2
FALSE

Here is the next compound: CN(C)S(=O)(=O)N(SC(F)(Cl)Cl)c1ccccc1
TRUE

And COc1c2c(cc3c1OCO3)CCN(C)C2 ?
FALSE

Item: CC1(C)COP(Oc2ccccc2)OC1
FALSE

Param item: O=[N+]([O-])C(Br)Br
FALSE

Same read-out for CCC(C)Br (stereo unspecified) ?
FALSE

Note, next up: CCCCN(CCCC)C(=S)[S-].CCCCN(CCCC)C(=S)[S-].[Ni+2]
FALSE

Consider next the compound CNNC in the same way.
FALSE

Repeat with C#C[C@]1(O)C=C[C@H]2[C@@H]3CCC4=CC(=O)CC[C@@H]4[C@H]3CC[C@@]21CC
FALSE

How about this compound: O=c1c(C2CC(c3ccc(-c4ccc(Br)cc4)cc3)Cc3ccccc32)c(O)sc2ccccc12 (stereo unspecified)
FALSE

Next compound: CC(=O)C(Cl)C(=O)N(C)C (stereo unspecified)
FALSE

Similarly, CCOP(O)OCC ?
FALSE

Lookup CCOC(C(=O)OCCN(C)C)(c1ccccc1)c1ccccc1
FALSE

// next record C=CC(=O)OCC(COC(=O)C=C)(COC(=O)C=C)COC(=O)C=C
FALSE

Continue with COC(=O)C1=CCCN(C)C1
TRUE

Try the compound CCCCCCC[CH2][Sn]([Cl])([Cl])[CH2]CCCCCCC
FALSE

Now consider CCOC(=O)C1(c2ccccc2)CCN(CCc2ccc(N)cc2)CC1 .
FALSE

Same for CCCCCCBr
FALSE

Another compound to check: NCCCNCCCN
FALSE

Same lookup for O=[N+]([O-])c1ccc(O)c([N+](=O)[O-])c1 , please.
FALSE

Could you do the same for Oc1cc(Cl)c(Cl)c(Cl)c1 , please?
FALSE

CCN(CC)C(=O)Cl , same question.
FALSE

Let us now turn to CCOCCOC(C)=O
FALSE
